EXPERIMENTAL SYSTEM: hFXR (Homo sapiens)
Sequence (Q96RI1 whole entry): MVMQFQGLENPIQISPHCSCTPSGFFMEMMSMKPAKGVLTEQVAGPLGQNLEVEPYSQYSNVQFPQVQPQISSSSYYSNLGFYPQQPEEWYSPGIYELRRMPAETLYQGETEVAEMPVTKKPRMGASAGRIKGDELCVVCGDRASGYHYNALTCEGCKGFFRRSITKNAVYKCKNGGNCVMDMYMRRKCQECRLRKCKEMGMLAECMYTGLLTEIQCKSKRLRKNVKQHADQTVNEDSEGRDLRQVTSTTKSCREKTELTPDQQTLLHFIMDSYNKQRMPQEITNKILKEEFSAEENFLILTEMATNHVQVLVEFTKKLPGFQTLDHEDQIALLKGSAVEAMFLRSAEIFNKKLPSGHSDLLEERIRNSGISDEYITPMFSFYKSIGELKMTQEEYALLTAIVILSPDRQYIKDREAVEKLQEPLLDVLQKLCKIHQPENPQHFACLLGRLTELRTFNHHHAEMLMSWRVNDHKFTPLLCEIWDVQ
Sequence (P19793 whole entry partner): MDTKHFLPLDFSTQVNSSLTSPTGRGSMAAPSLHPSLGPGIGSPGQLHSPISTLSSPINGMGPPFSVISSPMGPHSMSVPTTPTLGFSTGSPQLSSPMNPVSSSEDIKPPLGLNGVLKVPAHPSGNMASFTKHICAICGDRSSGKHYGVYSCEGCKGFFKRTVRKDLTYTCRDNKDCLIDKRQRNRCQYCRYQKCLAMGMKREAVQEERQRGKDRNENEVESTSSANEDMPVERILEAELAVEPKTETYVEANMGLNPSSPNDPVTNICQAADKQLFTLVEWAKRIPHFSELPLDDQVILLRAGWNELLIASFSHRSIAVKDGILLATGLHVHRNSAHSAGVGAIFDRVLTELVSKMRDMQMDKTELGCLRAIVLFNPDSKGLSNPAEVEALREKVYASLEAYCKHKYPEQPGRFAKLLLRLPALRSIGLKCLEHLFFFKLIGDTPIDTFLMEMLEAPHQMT
TEST DESCRIPTION: In Vitro FXR Assay (TK): TK-ECRE-luc reporter in transfected CV-1 cells
EXPERIMENTAL CONTEXT: 18 hrs, luminescence, maximum efficacy of <25% of the Fexarmine control classified as '+'
QUANTITY: EC50

{"columns": ["MOLECULE", "EC50"],
 "data": [
  ["COc1ccc([C@H]2CC[C@H](CN(c3cccc(-c4cnn(C5CC5)c4)c3)C(=O)[C@H]3CC[C@H](OC(=O)N4CCS(=O)(=O)CC4)CC3)CC2)cc1C [Compound 7.30]", "≤ 250 nM"],
  ["CCCC1CN(C(=O)O[C@H]2CC[C@H](C(=O)N(C[C@H]3CC[C@H](c4ccc(OC)c(C)n4)CC3)c3cc(-c4coc(C5CC5)n4)ccn3)CC2)C1 [Compound 7.105]", "≤ 250 nM"],
  ["COc1ccc([C@H]2CC[C@H](CN(c3cccc(-c4cnn(C5CC5)c4)c3)C(=O)[C@H]3CC[C@H](OC(=O)NC4CN(C)C4)CC3)CC2)cc1C [Compound 6.18]", "≤ 250 nM"],
  ["COc1ccc([C@H]2CC[C@H](CN(c3cc(-c4coc(C5CC5)n4)ccn3)C(=O)[C@H]3CC[C@H](OC(=O)N4CCNCC4)CC3)CC2)nc1C [Compound 6.78]", "250 to 1000 nM"],
  ["CNC(=O)O[C@H]1CC[C@H](C(=O)N(C[C@H]2CC[C@H](c3ccc(OC)c(C)n3)CC2)c2cccc(-c3ccc(N(C)C)nc3)c2)CC1 [Compound 5.41]", "≤ 250 nM"]
]}

Input line: Return the recorded EC50 value; entry: COc1ccc([C@H]2CC[C@H](CN(c3cc(-c4coc(C5CC5)n4)ccn3)C(=O)[C@H]3CC[C@H](OC(=O)NCC(O)C(C)C)CC3)CC2)nc1C (stereo partly shown) [Compound 6.89]
Output line: ≤ 250 nM

Input line: // fetch EC50 given entry COc1ccc([C@H]2CC[C@H](CN(c3cccc(-c4cnc(C5CC5)s4)c3)C(=O)[C@H]3CC[C@H](NC(=O)Cn4ccnc4)CC3)CC2)cc1C [Compound 27.03]
Output line: 250 to 1000 nM
